molecular target: T1, Merkel cell polyomavirus T antigen KLL epitope homolog (C-terminal cysteine replaced by alanine) peptide on … (human); assay: IFN-g ELISA; T2 + peptide titration; T cell clone or line
T1 peptide: KLLEIAPNA
PROPERTY: EC50 of peptide (ng/mL)
Please state the figure in ng/mL; there is no need to write the unit.

Using known records, supply EC50 of peptide for w876 clonotype 16 (TCR) alpha TRAV38-1*01 TRAJ23*01 CDR3: CAYNQGGKLIF beta TRBV19*01 TRBJ2-1*01 CDR3: CASSTLSGTHNEQFF
0.12

***
State its EC50 of peptide: w876 clonotype 5 (TCR) alpha TRAV38-1*01 TRAJ23*01 CDR3: CAYNQGGKLIF beta TRBV10-2*01 TRBJ2-2*01 CDR3: CASSVLNTGELFF
0.11

Provide only the value of recorded EC50 of peptide for w683 clonotype 2 (TCR) alpha TRAV12-1*01 TRAJ43*01 CDR3: CVLNNNDMRF beta TRBV6-5*01 TRBJ1-2*01 CDR3: CASRSQNYYGYTF
0.21

Return EC50 of peptide (reported value) for this binder: w876 clonotype 1 (TCR) alpha TRAV12-1*01 TRAJ45*01 CDR3: CVVGEYSGGGADGLTF beta TRBV28*01 TRBJ2-1*01 CDR3: CAIRAGASYNEQFF
0.31

Provide one value: measured EC50 of peptide of w876 clonotype 2 (TCR) alpha TRAV12-1*01 TRAJ45*01 CDR3: CVVTEYSGGGADGLTF beta TRBV10-3*01 TRBJ2-2*01 CDR3: CASRGQNTGELFF
1.2

Let me know recorded EC50 of peptide for w876 clonotype 3 (TCR) alpha TRAV19*01 TRAJ40*01 CDR3: CALGGGTFTSGTYKYIF beta TRBV9*02 TRBJ2-2*01 CDR3: CASSVEDYTGELFF , thanks.
0.12

In one line, give reported EC50 of peptide of the entry w876 clonotype 4 (TCR) alpha TRAV12-1*01 TRAJ45*01 CDR3: CVVYTGYSGGGADGLTF beta TRBV10-2*01 TRBJ2-2*01 CDR3: CASSVLNTGELFF .
0.31
